Here the recorded IC50 is given for each entry.
System: MDA-MB-231
assay-overview: MTT cell viability assay, MDA-MB-231
Type: cell-based
study-conditions: Homo sapiens, 72 h, mean ± SEM, read-out: Cytotoxicity IC50 MDA-MB-231
Experimental: MDA-MB-468, MDA-MB-231, MCF-7, and MCF-10A cell lines were obtained from the National Collection of Authenticated Cell Culture, China. The cells were cultured in DMEM medium supplemented with 10% FBS and 1% penicillin/streptomycin, and maintained at 37 °C in a humidified atmosphere with 5% CO2. Cell viability was assessed using the MTT assay. […] The resulting formazan crystals were dissolved in 150 µL of DMSO, and the absorbance was measured at 570 nm using a microplate reader.
Please give a number only; it is taken to be in µM.

A selection of reference data follows.
O=C(NCc1cccnc1)Nc1ccc(S(=O)(=O)N2CCN(C(=O)c3cc(Cc4n[nH]c(=O)c5ccccc45)ccc3F)CC2)cc1 [DDY02] :: 10.4
NC(=O)c1ccccc1OCc1ccc(F)c(C(=O)N2CCN(S(=O)(=O)Cc3ccc(NC(=O)NCc4cccnc4)cc3)CC2)c1 [DDY06] :: 15.4

INPUT: Any idea what its IC50 is? The compound is O=C(c1cc(Cc2n[nH]c(=O)c3ccccc23)ccc1F)N1CCN(S(=O)(=O)c2ccc(NC(=S)NCc3cccnc3)cc2)CC1 [DDY01]
OUTPUT: 6.17

INPUT: Okay, and NC(=O)c1ccccc1OCc1cccc(C(=O)N2CCN(S(=O)(=O)c3ccc(NC(=O)NCc4cccnc4)cc3)CC2)c1 [DDY08] ?
OUTPUT: 11.1

INPUT: Okay, and NC(=O)c1cccc2[nH]c(C(=O)N3CCN(S(=O)(=O)c4ccc(NC(=S)NCc5cccnc5)cc4)CC3)nc12 [DDY10] ?
OUTPUT: 4.45

INPUT: Okay, and NC(=O)c1ccccc1OCc1ccc(F)c(C(=O)N2CCN(S(=O)(=O)c3ccc(NC(=S)NCc4cccnc4)cc3)CC2)c1 [DDY04] ?
OUTPUT: 13.5

====

System: MCF-7
assay-overview: MTT cell viability assay, MCF-7
Type: cell-based
study-conditions: Homo sapiens, MCF7, 72 h, mean ± SEM, read-out: Cytotoxicity IC50 MCF-7
Labels assigned by IC50 range: lower band = under 8 µM, central band = from 8 µM up to 10 µM, upper band = 10 µM and over

Example cases with answers are listed next.
NC(=O)c1cccc2[nH]c(C(=O)N3CCN(S(=O)(=O)c4ccc(NC(=O)NCc5cccnc5)cc4)CC3)nc12 :: lower band
NC(=O)c1cc(F)ccc1OCc1ccc(F)c(C(=O)N2CCN(S(=O)(=O)c3ccc(NC(=O)NCc4cccnc4)cc3)CC2)c1 :: upper band
NC(=O)c1ccccc1OCc1ccc(F)c(C(=O)N2CCN(S(=O)(=O)c3ccc(NC(=S)NCc4cccnc4)cc3)CC2)c1 :: upper band

INPUT: Band for "NC(=O)c1ccccc1OCc1cccc(C(=O)N2CCN(S(=O)(=O)c3ccc(NC(=O)NCc4cccnc4)cc3)CC2)c1" ?
OUTPUT: central band

INPUT: Okay, and "NC(=O)c1cccc2[nH]c(C(=O)N3CCN(S(=O)(=O)c4ccc(NC(=S)NCc5cccnc5)cc4)CC3)nc12" ?
OUTPUT: central band

INPUT: Okay, and O=C(/C=C/c1cccnc1)NCCCCC1CCN(C(=O)c2ccccc2)CC1 [FK866, reference compound] ?
OUTPUT: lower band

INPUT: Okay, and "NC(=O)c1cc(F)ccc1OCc1cccc(C(=O)N2CCN(S(=O)(=O)c3ccc(NC(=O)NCc4cccnc4)cc3)CC2)c1" ?
OUTPUT: upper band

INPUT: Okay, and "O=C(NCc1cccnc1)Nc1ccc(S(=O)(=O)N2CCN(C(=O)CCc3nc4ccccc4c(=O)[nH]3)CC2)cc1" ?
OUTPUT: upper band

INPUT: Okay, and "O=C(NCc1cccnc1)Nc1ccc(S(=O)(=O)N2CCN(C(=O)c3cc(Cc4n[nH]c(=O)c5ccccc45)ccc3F)CC2)cc1" ?
OUTPUT: lower band

INPUT: Okay, and O=C(c1cc(Cc2n[nH]c(=O)c3ccccc23)ccc1F)N1CCN(C(=O)C2CC2)CC1 [Olaparib, reference compound] ?
OUTPUT: central band

INPUT: Okay, and "O=C(c1cc(Cc2n[nH]c(=O)c3ccccc23)ccc1F)N1CCN(S(=O)(=O)c2ccc(NC(=S)NCc3cccnc3)cc2)CC1" ?
OUTPUT: central band

INPUT: Okay, and "NC(=O)c1ccccc1OCc1ccc(F)c(C(=O)N2CCN(S(=O)(=O)c3ccc(NC(=O)NCc4cccnc4)cc3)CC2)c1" ?
OUTPUT: upper band
